TESTED TARGET: Cytochrome P450 1A2 (Homo sapiens)
Sequence (P05177 whole entry): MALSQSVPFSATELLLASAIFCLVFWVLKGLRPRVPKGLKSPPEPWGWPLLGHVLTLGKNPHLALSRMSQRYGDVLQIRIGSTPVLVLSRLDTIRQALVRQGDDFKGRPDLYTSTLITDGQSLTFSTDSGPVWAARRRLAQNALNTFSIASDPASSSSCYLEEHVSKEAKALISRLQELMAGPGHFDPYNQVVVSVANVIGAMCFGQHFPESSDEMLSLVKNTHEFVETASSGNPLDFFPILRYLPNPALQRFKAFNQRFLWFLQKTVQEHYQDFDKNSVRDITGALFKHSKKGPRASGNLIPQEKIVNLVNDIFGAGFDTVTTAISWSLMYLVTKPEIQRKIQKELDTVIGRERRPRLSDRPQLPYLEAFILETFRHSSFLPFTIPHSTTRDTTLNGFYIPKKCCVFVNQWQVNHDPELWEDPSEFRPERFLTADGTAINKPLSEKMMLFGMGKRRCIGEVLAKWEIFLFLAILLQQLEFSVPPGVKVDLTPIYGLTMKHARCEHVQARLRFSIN
RECORDED ENDPOINT: IC50 (nM)
Numbers only, in nM.

Entry under review: COc1cc(CCNc2nc(C#Cc3ccccc3)nc3c2ncn3[C@H]2[C@H](O)[C@H](O)[C@@H]3C[C@@H]32)ccc1O . Reported IC50?
2890

###

TESTED TARGET: Sigma non-opioid intracellular receptor 1 (Homo sapiens)
Sequence (Q99720 whole entry): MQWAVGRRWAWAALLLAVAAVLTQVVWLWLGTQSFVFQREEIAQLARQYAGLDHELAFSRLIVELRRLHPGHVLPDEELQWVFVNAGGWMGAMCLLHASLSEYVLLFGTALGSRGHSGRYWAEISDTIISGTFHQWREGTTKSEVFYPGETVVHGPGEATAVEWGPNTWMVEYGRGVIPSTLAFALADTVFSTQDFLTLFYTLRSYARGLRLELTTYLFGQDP
METHOD SUMMARY: Displacement of [3H]-Pentazocine from sigma 1 receptor (unknown origin) measured after 90 mins by microbeta counting analysis
RECORDED ENDPOINT: Ki
Number plus unit, in that order.

Entry under review: COc1cc(CCNc2nc(C#Cc3ccccc3)nc3c2ncn3[C@H]2[C@H](O)[C@H](O)[C@@H]3C[C@@H]32)ccc1O . Reported Ki?
3.57 µM

###

METHOD SUMMARY: in vivo
ASSAY SETUP: Wistar, rat, po, 3 mg/kg
RECORDED ENDPOINT: bioavailability (%)
Give bare numbers, in %.

Entry under review: COc1cc(CCNc2nc(C#Cc3ccccc3)nc3c2ncn3[C@H]2[C@H](O)[C@H](O)[C@@H]3C[C@@H]32)ccc1O . Reported bioavailability?
1.5

###

TESTED TARGET: Adenosine receptor A1 (Homo sapiens) (UniProt P30542)
Sequence (whole entry): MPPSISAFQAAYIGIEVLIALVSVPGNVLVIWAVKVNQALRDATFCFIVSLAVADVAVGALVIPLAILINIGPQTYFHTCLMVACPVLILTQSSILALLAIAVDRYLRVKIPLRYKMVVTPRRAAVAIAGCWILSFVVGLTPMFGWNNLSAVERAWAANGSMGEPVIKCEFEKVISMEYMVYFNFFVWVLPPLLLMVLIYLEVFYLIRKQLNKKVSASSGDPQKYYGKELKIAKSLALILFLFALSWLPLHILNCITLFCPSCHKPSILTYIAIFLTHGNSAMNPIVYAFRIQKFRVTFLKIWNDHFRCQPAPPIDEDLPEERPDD
METHOD SUMMARY: Displacement of [3H]R-PIA from recombinant human A1AR expressed in HEK293 cell membranes at 10 uM measured after 60 mins by liquid scintillation counting method relative to control
RECORDED ENDPOINT: inhibition

Consider the reported inhibition for these molecules:
- COc1cc(CCNc2nc(C#Cc3ccc(F)cc3)nc3c2ncn3[C@H]2[C@H](O)[C@H](O)[C@@H]3C[C@@H]32)ccc1O: 39%
- O[C@@H]1[C@H](O)[C@@H]2C[C@@H]2[C@H]1n1cnc2c(N[C@H]3C[C@@H]3c3ccccc3)nc(C#Cc3ccc(Cl)s3)nc21: 32%
- Oc1ccc(CCNc2nc(C#Cc3ccccc3)nc3c2ncn3[C@H]2[C@H](O)[C@H](O)[C@@H]3C[C@@H]32)cc1F: 44%

Entry under review: Cc1cccc(CCNc2nc(C#Cc3ccc(Cl)s3)nc3c2ncn3[C@H]2[C@H](O)[C@H](O)[C@@H]3C[C@@H]32)c1 . Reported inhibition?
29%
